Tested on: A549 cells
Experiment: Cytotoxicity against A549 cells, Alamar Blue
Format: cell-based
Details: Homo sapiens, A549, 65 h; Supplementary Table 1; compound 0.5 mM; percentage of controls (n=1)
reported.metric: viability at 500 µM (%)
Numeric answer only, unit % assumed.

Enquiry: Record request: viability at 500 µM value, item O=C(O)Cc1ccc(F)cc1
Return: 98.4

Enquiry: Using the record for Nc1ccccc1-c1cccnc1 , report its viability at 500 µM.
Return: 85.3

Enquiry: Requested field: viability at 500 µM. Item: OCC1CCOCC1 [compound 43, tetrahydro‐2H‐pyran‐4‐ylmethanol]
Return: 79.2

Next:
Enquiry: Recorded viability at 500 µM for NC1Cc2ccccc2C1 , please?
Return: 123

Enquiry: Entry under review: OCc1ccccc1-c1cccs1 . Reported viability at 500 µM?
Return: 56.5

Enquiry: What does the record list as viability at 500 µM for NCc1ccccc1-n1cccc1 [compound 363, [2‐(1H‐pyrrol‐1‐yl)phenyl]methylamine] ?
Return: 45.6

Enquiry: Given the entry CCCCc1nc(CO)c[nH]1 , report its measured viability at 500 µM.
Return: 139

Enquiry: // returns reported viability at 500 µM for input OCCc1c[nH]c2ccccc12
Return: 59.9

Enquiry: Given O=C(O)c1ccc(-n2cccc2)cc1 , state its recorded viability at 500 µM.
Return: 63.2
